system: Gram-negative bacteria; type: cell-based, E. coli, P. aeruginosa, K. pneumoniae; settings: ratio of MHC to GM, Gram-negative bacteria
Where no end group is shown, it is not given here.
Answer each item with its documented TI, therapeutic index.
Numbers only.

RIGSILGALAKGLPTLKSWIKNR-NH2 [A(A1R, I17K)]
5.04
RIGSILGRLAKGLPTLKSWIKNR-NH2 [A(A1R, A8R, I17K)]
16
RIGSILGRLAKGLPTLISWIKNR-NH2 [A(A1R, A8R)]
1

Turning now to a further record.
What does the data say about its TI, therapeutic index? Entry: AIGSILGRLAKGLPTLKSWIKNR-NH2 [A(A8R, I17K)]
4

* * *

system: Staphylococcus aureus (1.8721); test: Antimicrobial activity, broth microdilution MIC; format: cell-based; conditions: modified CLSI broth microdilution, LB medium, 1 × 10^6 CFU/ml, 37 °C, 18 to 20 hours, absorbance 600 nm
Where no end group is shown, it is not given here.
reported-endpoint: MIC S. aureus (µM)
Numbers only, in µM.

Some substances with known MIC S. aureus results, for comparison:
AIGSILGALAKGLPTLRSWIKNR-NH2 [A(I17R)]
25
AIGSILGRLAKGLPTLISWIKNR-NH2 [A(A8R)]
3.13
RIGSILGALAKGLPTLKSWIKNR-NH2 [A(A1R, I17K)]
100

For each of the substances below, state MIC S. aureus.
1. RIGVLLARLPKLFSLFKLMGKKV-NH2 [RV-23, reference compound]
2. RIGSILGRLAKGLPTLRSWIKNR-NH2 [A(A1R, A8R, I17R)]
3. AIGSILGRLAKGLPTLKSWIKNR-NH2 [A(A8R, I17K)]

[12.5, 100, 100]

* * *

Answer each item with its documented MIC S. aureus.
system: Staphylococcus aureus (1.8721); test: Antimicrobial activity, broth microdilution MIC; assay type: cell-based; details: modified CLSI broth microdilution, LB medium, 1 × 10^6 CFU/ml, 37 °C, 18 to 20 hours, absorbance 600 nm
Where no end group is shown, it is not given here.
Give bare numbers, in µM.

For each of the substances below, state MIC S. aureus.
1. AIGSILGALAKGLPTLISWIKNR-NH2 [AR-23, reference compound]
2. RIGSILGRLAKGLPTLISWIKNR-NH2 [A(A1R, A8R)]
3. AIGSILGALAKGLPTLKSWIKNR-NH2 [A(I17K)]
4. RIGSILGALAKGLPTLISWIKNR-NH2 [A(A1R)]
5. M(G1R, V8R, I17R): melittin analogue with residues at position 1, 8 and 17 replaced by positively charged residues (RIGAVLKRLTTGLPALRSWIKRKRQQ; not fully specified; ends and bridges not checked; UniProt P01501 44-69, looked up, variant G1R V8R I17R)

1: 6.25; 2: 12.5; 3: 50; 4: 6.25; 5: 100

Find the measured MIC S. aureus: item RIGSILGRLAKGLPTLKSWIKNR-NH2 [A(A1R, A8R, I17K)] , target or system Staphylococcus aureus (1.8721).
100

* * *

system: Klebsiella pneumonia (1.1736); experiment: Antimicrobial activity, broth microdilution MIC; assay type: cell-based; conditions: modified CLSI broth microdilution, LB medium, 1 × 10^6 CFU/ml, 37 °C, 18 to 20 hours, absorbance 600 nm
Where no end group is shown, it is not given here.
reported-endpoint: MIC K. pneumoniae (µM)
One number for each entry, in µM.

Some substances with known MIC K. pneumoniae results, for comparison:
AIGSILGRLAKGLPTLISWIKNR-NH2 [A(A8R)]
12.5
RIGSILGRLAKGLPTLRSWIKNR-NH2 [A(A1R, A8R, I17R)]
12.5

Turning now to a further record.
What does the data say about its MIC K. pneumoniae? Entry: M(G1R, V8R, I17R): melittin analogue with residues at position 1, 8 and 17 replaced by positively charged residues (RIGAVLKRLTTGLPALRSWIKRKRQQ; not fully specified; ends and bridges not checked; UniProt P01501 44-69, looked up, variant G1R V8R I17R)
12.5

// data source = paper PMC4897634
